- Test system: Mycobacterium tuberculosis
- Assay name: Growth inhibition of Mycobacterium tuberculosis H37 by radiometric BACTEC 460 assay
- Format: functional
Each entry below carries its recorded MIC.

INSERT INTO measurements (compound, recorded_measurement) VALUES
  ('CCCC1CCc2c(sc(N)c2C#N)C1 (centres undefined)', '50 µg/mL');

# returns recorded MIC (system: Mycobacterium tuberculosis) for CCCOc1ccc2nc(N)sc2c1
20 µg/mL

Same question, N#Cc1c(N)sc2c1CCCCC2 this time
> 500 µg/mL

Item: CCC1CCc2c(sc(N)c2C#N)C1 (centres undefined)
50 µg/mL
